Test system: MOLM-13
assayOverview: cell viability (% survival relative to DMSO control, bortezomib = 0%); higher = less cytotoxic
assayContext: 10 nM; 72 h
Reported cell viability values for the following compounds.
Entry rule: numbers only, all in %.

compound="C=C1NC(=O)c2cc(CN(C)c3ccc(C(=O)N[C@@H](CCC(=O)O)C(=O)O)s3)ccc2N1 [Raltitrexed]" targetortestsystem=MOLM-13 measuredresult=145
compound="N=C(N)c1ccc(N=NNc2ccc(C(=N)N)cc2)cc1 [Diminazene]" targetortestsystem=MOLM-13 measuredresult=98.1
compound="CC(=O)N1CCN(c2ccc(OC[C@@H]3CO[C@@](Cn4ccnc4)(c4ccc(Cl)cc4Cl)O3)cc2)CC1 (racemic) [Ketoconazole]" targetortestsystem=MOLM-13 measuredresult=110

// moving on: another record for cell viability
cell viability reading for CCCCCCCNC=O [N-Heptyl-Formamide] : 98.3
